details: 298.15 K; 101.33 kPa; Liquid; Vibrating tube method
Property Name: mass density (kg/m3)
Use kg/m3 as the unit, but write only the number.

Worked examples follow.
[
  {
    "Compound": "CCC(=O)N(C)C [N,N-dimethylpropionamide]",
    "Scale Unit": "kg/m3",
    "Experimental Result": 920.32
  },
  {
    "Compound": "CCC(=O)[NH+](C)C.O=S(=O)([N-]S(=O)(=O)C(F)(F)F)C(F)(F)F",
    "Scale Unit": "kg/m3",
    "Experimental Result": 1520.35
  },
  {
    "Compound": "CN(C)C=O [dimethylformamide]",
    "Scale Unit": "kg/m3",
    "Experimental Result": 943.85
  }
]

Okay, now this compound:
Q) Endpoint output: mass density of CC(=O)N(C)C [N,N-dimethylethanamide] . Value?
A) 936.13

###

conditions: 363.15 K; 101.33 kPa; Liquid; Concentric cylinders viscometry
Property Name: viscosity (mPa·s)
Provide only the numeric value, understood in mPa·s.

Example cases with answers are listed next.
[
  {
    "Molecule": "CN(C)C=O [dimethylformamide]",
    "Property Name": "viscosity",
    "Experimental Result": 0.398
  },
  {
    "Molecule": "CCC(=O)[NH+](C)C.O=S(=O)([N-]S(=O)(=O)C(F)(F)F)C(F)(F)F",
    "Property Name": "viscosity",
    "Experimental Result": 12.28
  },
  {
    "Molecule": "CC(=O)N(C)C [N,N-dimethylethanamide]",
    "Property Name": "viscosity",
    "Experimental Result": 0.459
  },
  {
    "Molecule": "CCC(=O)N(C)C [N,N-dimethylpropionamide]",
    "Property Name": "viscosity",
    "Experimental Result": 0.46
  }
]

Q) Can you look up the measured viscosity of CC(=O)[NH+](C)C.O=S(=O)([N-]S(=O)(=O)C(F)(F)F)C(F)(F)F [N,N-dimethylacetamidium bis(trifluoromethanesulfonyl)amide] for me?
A) 13.51

###

conditions: 293.15 K; 101.33 kPa; Liquid; Concentric cylinders viscometry
Property Name: viscosity (mPa·s)
Report as a plain number; the unit mPa·s is understood.

Solved cases below.
[
  {
    "Compound": "CC(=O)N(C)C [N,N-dimethylethanamide]",
    "viscosity [mPa·s]": 1
  },
  {
    "Compound": "CCC(=O)[NH+](C)C.O=S(=O)([N-]S(=O)(=O)C(F)(F)F)C(F)(F)F",
    "viscosity [mPa·s]": 154.9
  },
  {
    "Compound": "CCC(=O)N(C)C [N,N-dimethylpropionamide]",
    "viscosity [mPa·s]": 1.02
  }
]

# context switch: different compound, same viscosity
Q) Using the record for CN(C)C=O [dimethylformamide] , report its viscosity.
A) 0.845

###

mass density reference
conditions: 273.15 K; 101.33 kPa; Liquid; Vibrating tube method
Please give a number only; it is taken to be in kg/m3.

// solved cases for mass density follow
[
  {
    "Molecule": "CCC(=O)N(C)C [N,N-dimethylpropionamide]",
    "mass density / kg/m3": 942.45
  },
  {
    "Molecule": "CC(=O)N(C)C [N,N-dimethylethanamide]",
    "mass density / kg/m3": 959.16
  },
  {
    "Molecule": "CN(C)C=O [dimethylformamide]",
    "mass density / kg/m3": 967.56
  }
]

Now take the following molecule into account.
Q) Need mass density, item CCC(=O)[NH+](C)C.O=S(=O)([N-]S(=O)(=O)C(F)(F)F)C(F)(F)F
A) 1546.8
